Target: CCK receptor sites (Mus musculus, UniProt P56481)
Construct: from tissue; host or cells: cerebral cortex membranes of male CFLP mice
Sequence (P56481 1-453): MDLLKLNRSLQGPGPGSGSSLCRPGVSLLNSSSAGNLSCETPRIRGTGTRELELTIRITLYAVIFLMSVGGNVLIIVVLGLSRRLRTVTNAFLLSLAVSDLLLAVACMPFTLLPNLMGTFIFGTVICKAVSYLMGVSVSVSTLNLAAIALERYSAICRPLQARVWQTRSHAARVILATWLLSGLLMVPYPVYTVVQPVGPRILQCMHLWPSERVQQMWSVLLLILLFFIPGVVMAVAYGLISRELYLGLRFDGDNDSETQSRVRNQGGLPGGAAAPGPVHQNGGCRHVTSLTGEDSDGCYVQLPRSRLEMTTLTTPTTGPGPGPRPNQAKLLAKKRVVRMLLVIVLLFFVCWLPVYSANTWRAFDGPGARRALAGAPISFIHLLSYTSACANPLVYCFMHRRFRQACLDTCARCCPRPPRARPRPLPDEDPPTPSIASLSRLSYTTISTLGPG
Test: CCK receptor binding, displacement of tritiated pentagastrin from mouse cerebral cortex membranes
Settings: 2 nM tritiated pentagastrin, mouse cerebral cortical membranes; Ki from IC50 by Cheng-Prusoff; read-out: Ki
MEASURED PROPERTY: Ki (nM)

1) CC(Cc1ncc2ccccn12)(NC(=O)OC1C2CC3CC(C2)CC1C3)C(=O)N[C@@H](CO)[C@@H](O)c1ccccc1 (stereo partly drawn) [drawing 57 (H H CH2 OH H OH)]
750
2) CC(Cc1cc2c3ccccc3n(S(C)(=O)=O)c2cn1)(NC(=O)OC1C2CC3CC(C2)CC1C3)C(=O)NC(CO)Cc1ccccc1 (stereo not drawn)
844
3) CC(Cc1cccnc1)(NC(=O)OC1C2CC3CC(C2)CC1C3)C(=O)N[C@H](CO)Cc1ccccc1 (stereo partly drawn) [drawing 32 (Diast I)]
700

Entry source: patent US5331006A
